Assay: Primary qHTS for delayed death inhibitors of the malarial parasite plastid, 48 hour incubation
Conditions: P. falciparum luciferase growth in erythrocytes; series mostly up to 28.7 µM
Excerpt: The goal of this screen is to discover new antimalarial compounds that act by inhibiting the development of the apicoplast in the malarial parasite Plasmodium falciparum. […] We have developed a cell-based assay that measures parasite growth based on the expression of an integrated copy of a firefly luciferase reporter. […] Growth inhibition is detected by a decrease in luciferase activity. […]
Among all 310,000 compounds or so, about 18,000 (5.8%) were called active. Not shown: some 22% with an inconclusive outcome. The call rests on the fitted dose curve; in most records, active means well fitted inhibition curve with a large enough effect; inconclusive means small, poorly fitted or top-dose-only effect, or another doubt; inactive means no such curve, though single readings can be large or run the other way. Only a selection was taken, and actives are over-represented in it overall.
Permitted responses: y (active), n (inactive)

COc1ccc(C(=O)Nc2sc(C)c(C)c2CN2CCOCC2)cc1 | n
O=C(CCN1C(=O)[C@@H]2Cc3ccccc3CN2C1=O)NCc1ccccc1 | n
COC(=O)c1ccc(Cc2ccccc2)o1 | n
CCN1C(=NCCc2cccnc2)N[C@@H](c2ccccc2)[C@H](C(=O)OC)[C@H]1C | n
NC(=O)C1CCN(C(=O)COc2ccc3c4c(c(=O)oc3c2)CCC4)CC1 | n
Cc1ccccc1NC(=O)CCNS(=O)(=O)c1ccc2[nH]c(=O)oc2c1 | n
COCC1CCN(C(=O)C2CCC(=O)N(CC3CCCCC3)C2)CC1 (stereo not drawn) | n
CCOc1ccc(-c2nnc3ccc(SC)nn23)cc1 | n
Cc1ccc(-c2csc(NC(=O)C3=COCCO3)n2)cc1C | y
CCN(CC)S(=O)(=O)c1ccc2[nH]c(=O)cc(C(=O)N(C)C3CCS(=O)(=O)C3)c2c1 (stereo not drawn) | n

Qu. Recorded test call requested for Cc1cc(/C=N/NC(=O)c2cccnc2)c(C)n1CC(C)C
Ans. n

Qu. Recorded test call requested for Cc1ccc(-c2csc(NC(=O)c3cnccn3)n2)cc1C
Ans. n

Qu. Recorded test call requested for c1ccc(Cc2cc[n+](Cc3ccccc3)cc2)cc1
Ans. y

Qu. Recorded test call requested for C=CCNC(=O)c1csc(-c2ccccc2)n1
Ans. n

Qu. Recorded test call requested for O=C(NCc1nnc(SCC(=O)N2CCCCCC2)o1)c1ccc(F)cc1
Ans. n

Qu. Recorded test call requested for O=C(NCCCN1CCOCC1)c1cc(-c2ccccc2F)no1
Ans. n

Qu. Recorded test call requested for CC(C)NS(=O)(=O)c1ccc(OCC(=O)NC2CCCCCC2)cc1
Ans. n

Qu. Recorded test call requested for COc1ccc(C(=O)Cc2cnn(-c3ccccc3)c2)c(O)c1
Ans. n

Qu. Recorded test call requested for C[n+]1ccc(C(=O)NCc2ccccc2)cc1
Ans. n

Qu. Recorded test call requested for CC1=NN(Cc2ccccc2)C(=O)/C1=C/c1ccc(N(C)C)cc1
Ans. n

Qu. Recorded test call requested for COC(=O)c1cc(NC(=O)c2ccco2)ccc1N1CCOCC1
Ans. n

Qu. Recorded test call requested for CC(C)C[C@H](NC(=O)C1CCC(CNC(=O)[C@@H]2CCCN2C(=O)OC(C)(C)C)CC1)C(=O)O (stereo partly drawn)
Ans. n

Qu. Recorded test call requested for COc1ccc(CC(=O)NC2CCSc3ccccc32)cc1OC (stereo not drawn)
Ans. n

Qu. Recorded test call requested for CCOc1ccc(-c2cc(C)[n+](CCN(CC)CC)c(-c3ccc(OCC)cc3)c2)cc1
Ans. y

Qu. Recorded test call requested for CC1CCC(NC(=O)CN(C)S(=O)(=O)c2ccc3c(c2)c(=O)n(C)c(=O)n3C)CC1 (stereo not drawn)
Ans. n

Qu. Recorded test call requested for Cc1csc(NC(=O)C2=COCCO2)n1
Ans. n

Qu. Recorded test call requested for O=C(O)c1cccc(S(=O)(=O)N2CC=C(c3ccccc3)CC2)c1
Ans. n
